study_system: MERTK (human) (UniProt Q12866)
Sequence (Q12866 whole entry, looked up): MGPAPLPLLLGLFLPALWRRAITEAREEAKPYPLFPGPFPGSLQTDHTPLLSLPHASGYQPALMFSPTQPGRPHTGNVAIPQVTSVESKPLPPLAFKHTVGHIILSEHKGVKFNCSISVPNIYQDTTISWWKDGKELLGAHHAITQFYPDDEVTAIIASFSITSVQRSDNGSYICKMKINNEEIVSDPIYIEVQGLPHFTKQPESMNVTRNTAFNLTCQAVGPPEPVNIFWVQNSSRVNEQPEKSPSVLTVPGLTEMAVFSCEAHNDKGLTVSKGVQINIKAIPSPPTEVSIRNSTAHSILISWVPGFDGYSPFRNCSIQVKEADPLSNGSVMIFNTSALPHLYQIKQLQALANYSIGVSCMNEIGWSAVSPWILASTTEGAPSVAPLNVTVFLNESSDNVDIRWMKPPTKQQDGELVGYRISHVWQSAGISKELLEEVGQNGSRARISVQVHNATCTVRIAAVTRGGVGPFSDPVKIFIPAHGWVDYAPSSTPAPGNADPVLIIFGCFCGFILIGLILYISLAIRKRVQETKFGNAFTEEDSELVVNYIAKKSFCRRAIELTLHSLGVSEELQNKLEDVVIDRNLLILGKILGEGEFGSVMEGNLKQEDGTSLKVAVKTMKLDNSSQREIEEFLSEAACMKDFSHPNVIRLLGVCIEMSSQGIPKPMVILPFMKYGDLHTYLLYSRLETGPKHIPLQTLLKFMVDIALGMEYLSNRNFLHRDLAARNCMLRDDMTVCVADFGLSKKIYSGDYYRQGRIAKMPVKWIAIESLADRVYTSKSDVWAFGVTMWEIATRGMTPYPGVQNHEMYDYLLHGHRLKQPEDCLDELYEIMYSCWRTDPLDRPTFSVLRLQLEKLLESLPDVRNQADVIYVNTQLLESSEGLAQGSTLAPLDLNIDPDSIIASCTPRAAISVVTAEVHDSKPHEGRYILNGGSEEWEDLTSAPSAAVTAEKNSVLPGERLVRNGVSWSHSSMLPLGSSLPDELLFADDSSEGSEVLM
test: radiometric filter-binding kinase assay, Kinase HotSpot
measurement_parameters: compound 0.5 µM; ATP 10 µM
# label = 1.0 if residual activity >= 80% else 0.0

smiles_entry: COc1cc2ncnc(Nc3cccc(Cl)c3)c2cc1OC
class: 0.0

Ask | Please indicate if the recorded residual activity for "CCN(CC)CCNC(=O)c1c(C)[nH]c(/C=C2\C(=O)Nc3ccc(Cl)cc32)c1C" meets or exceeds 80%.
Reply | 0.0

Ask | Another compound to look at: "Nc1ncnc2c1c(-c1ccc(Oc3ccccc3)cc1)cn2C1CCCC1"
Reply | 1.0

Ask | Another compound to look at: "Nc1cccc(-c2cc3c(Oc4cccc(O)c4)ncnc3[nH]2)c1"
Reply | 0.0

Ask | Another compound to look at: "CC#CC(=O)Nc1cc2c(Nc3ccc(F)c(Cl)c3)ncnc2cn1"
Reply | 1.0

Ask | Another compound to look at: "Nc1ncnc2[nH]nc(Nc3ccc(F)cc3)c12"
Reply | 1.0
